Reference for the values: PubChem BioAssay AID581

- target under test: Cathepsin G (Homo sapiens) (UniProt P08311)
- Sequence (P08311 21-244 limits assumed): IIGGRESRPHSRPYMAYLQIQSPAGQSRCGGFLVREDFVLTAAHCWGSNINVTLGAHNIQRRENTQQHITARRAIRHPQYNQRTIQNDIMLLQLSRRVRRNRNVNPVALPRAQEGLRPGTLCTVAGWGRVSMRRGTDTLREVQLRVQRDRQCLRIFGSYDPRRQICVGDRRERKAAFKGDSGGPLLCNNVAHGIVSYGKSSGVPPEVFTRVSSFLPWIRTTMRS
- assay name: human cathepsin G inhibitors, primary screen, biochemical, pooled compound mixtures, AMC fluorescence (AID 581);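 note: 0% = enzyme control without mixture and 100% = blank lacking enzyme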
- test conditions: purified enzyme, AMC-tetrapeptide fluorescence, screened at 5 µM (by protocol)
Out of some 62,000 compounds screened, about 95 (0.2%) were called active.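 Rule for the calls: active = inhibition above 20% in each of the two mixture wells holding the compound; inactive = inhibition of 20% or less in either well.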 For the sample, actives were picked, then their nearest neighbours and some compounds at random.
Labels: yes (1) for active, no (0) for inactive

| molecule | label value |
| --- | --- |
| CCCCNC(=O)CSc1nccn1Cc1ccccc1 | no (0) |
| CC1(C)CC(=O)C(C=NCCC2=CCCCC2)=C(O)C1 | no (0) |
| CCOc1ccc(CC(=O)Nc2ccc(S(=O)(=O)Nc3cc(C)on3)cc2)cc1OCC | no (0) |
| Cc1cc(=O)[nH]c(SCc2cc(Cl)ccc2OC(F)F)n1 | no (0) |
| O=C1CCCC(O)=C1C=NCCc1ccccc1 | yes (1) |
| CCOC(=O)c1c(NC(=O)CSc2nnc(Cc3csc(N)n3)n2C)sc(C)c1C | no (0) |
| CC1C=CCC2C(=O)N(c3cccc(C(=O)N4CCCCCC4)c3)C(=O)C12 (configuration not stated) | no (0) |
| Cc1ccc2cc3cc(C(=O)N4CCCCCC4)oc3nc2c1 | no (0) |
| CC(=O)N1C(=O)C2(Nc3ccccc3N2)c2ccccc21 | no (0) |
| COc1ccc(C2CC(c3ccccc3)Nc3ncnn32)cc1 (configuration not stated) | no (0) |
| CCOc1c(N2CCCCC2)c(=O)c1=O | no (0) |
| Fc1ccc(Br)cc1/C=N/n1cnnc1 | no (0) |

* * *

- target under test: Cathepsin G (Homo sapiens)
- assay name: human cathepsin G inhibitors, primary screen, biochemical, pooled compound mixtures, AMC fluorescence (AID 581);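 note: 0% = enzyme control without mixture and 100% = blank lacking enzyme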
- test conditions: purified enzyme, AMC-tetrapeptide fluorescence, stronger effect = higher value, screened at 5 µM (by protocol)
Screen size: about 62,000 compounds; about 95 (0.2%) were called active. The sample as a whole holds a higher share of actives than the screen did.

| compound | output unit | inhibition |
| --- | --- | --- |
| O=C(CCCC(=O)N(CC(=O)NC1CCCC1)Cc1ccccc1Cl)Nc1ccccn1 | % | 7.61 |
| C[C@H](NC(=O)NCCc1ccccc1)C(=O)O | % | 2.02 |
| CCOC(=O)CNC(=O)CSc1nnc(-c2cccc(OC)c2)n1CC | % | -5.21 |
| CCOC(=O)c1nnn(-c2nonc2OC)c1-c1ccccc1 | % | -2.37 |
| O=C(NCCCN1CCCCCC1)c1ccc(N2CCCC2=O)cc1 | % | 1.79 |
| COc1ccc(CCN=C2SCC(=O)N2C)cc1OC | % | 11.6 |
| CCCNC(=O)Nc1ccccc1C(=O)Nc1ccc(OC)cc1 | % | 4.04 |
| Nc1c(C(=O)NCc2ccccc2)nnn1Cc1cccc(Cl)c1 | % | -2.37 |
| COCCCn1c2nc3ccccc3nc2c2c(=O)n(Cc3ccc(Cl)cc3)c(C)nc21 | % | 7.46 |
| ON=C1/C(=N\O)CC2(C/C1=N/O)OCCO2 | % | -0.38 |
| CSCCC1NC2(C(=O)Nc3ccc(Cl)cc32)[C@@H]2C(=O)N(C3CCCC3)C(=O)[C@H]12 (some centres undefined) | % | 17.3 |
| CC1CN(C2CCCCC2)c2nc3c(c(=O)n(C)c(=O)n3C)n2C1 (centres undefined) | % | -2.58 |
| Cn1c(=O)[nH]c(=O)c2c1nc(N(CCO)Cc1ccccc1)n2Cc1ccccc1Cl | % | 5.71 |
| COc1ccc(OCCCON2C(=O)c3ccccc3C2=O)cc1 | % | -4.08 |
| CSc1nsc(SC)c1NC(=O)OC1CCCCC1 | % | 7.19 |
| COCC(=O)Nc1nnc(COc2ccccc2)s1 | % | -21.9 |
| Cc1ccc(N2C(=O)c3oc4ccccc4c(=O)c3C2c2cccnc2)nc1 (centres undefined) | % | 10.5 |
| CSc1ccc(-c2c(C#N)c(N)nc3c2c(C)nn3-c2ccccc2)cc1 | % | 5.96 |
| O=C(c1cnn2ccccc12)N1CCc2ccccc21 | % | 10.9 |
| CCOC(=O)N1CCN(CC(=O)c2ccc3c(c2)CCN3)CC1 | % | 10.3 |
| Cn1cccc1Cc1nnc(SCC(=O)NCc2ccc3c(c2)OCO3)n1CCc1ccccc1 | % | 10.5 |
| NC(=O)C1(N2CCCCC2)CCN(C(=O)c2ccc(C#Cc3ccccc3)o2)CC1 | % | 11.6 |
| CC1(C)CC(=O)c2cc(OCC(=O)NCC3CCCO3)ccc2O1 (centres undefined) | % | 4.79 |
| Cc1nnc(SCC(=O)NCCOc2ccc(Cl)cc2)n1-c1ccccc1 | % | 6.24 |
